- test system: T1, Soluble CTLA-4-Ig (extracellular domain of human CTLA-4 fused to the Fc portion of human IgG1) (human, UniProt P16410 36-161, FITC-conjugated in the FACS binding assays)
- T1 construct: extracellular domain; bought from R&D Systems; also called sCTLA-4-Ig; CTLA-4-Ig Fc; not shown: Fc portion of human IgG1
- T1 sequence (P16410 36-161): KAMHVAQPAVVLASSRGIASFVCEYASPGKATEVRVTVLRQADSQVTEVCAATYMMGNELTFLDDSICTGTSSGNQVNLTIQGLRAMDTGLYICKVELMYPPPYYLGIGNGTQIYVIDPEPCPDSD
- test method notes: competitive FACS on transfected cells, FITC-sCTLA-4-Ig with biotin-sCD28-Ig; grade 0-2 of CTLA-4/CD28 ratio vs WT hB7-1
Below, each of the binders is paired with its reported Binding Score value.

In the examples that follow, each entry is paired with its recorded Binding Score.
Round 1 CTLA4BP-7 (ligand, also called R1-7; R1 CTLA-4BP-7) VIHVTNEVKEVATLSCGHNVSGEELAQTRIYWQKEKKMVLTMMYGDMNIWPEYKNRTIFDITNNLSIVILALRPSDEGTYECVVLKYEKDAFKREHLAEVMLSVKADFPTPSITDFEIPPSNIRRIICLTSGGFPEPRLAWMKDGEELNAISTTVSQDPGTELYAVSSKLDFNMTTNHSFMCLIKYGHLRVNQTFSWNTPKQEHFPDNLLPSWAITLISVNGIFVICCLTYCFAPRCRERRRNERLRRESVRPV : 1
Round 2 CTLA4BP-5x9-12c (ligand) VIHVTKEVKEVATLSCGHNVSVEELAQTRIHWQKEKKMVLTMMSGDMNIWPEYKNRTIFDITNNLSIVILALRPSDEGTYECVVLKYEKDAFKREHLAEVMLSVKADFPTPSITDFEIPPSNIRRIICSTSGGFPEPHLSWLENGEELNAINTTASQDPETELYTVSSKLDFNMTTNHSFMCLIKYGHLRVNQTFNWNTPKQEHFPDNLLPSWAITLISVNGIFVICCLTYCFAPRCRERKSNERLRRESVRPV : 2
Round 2 CTLA4BP-5x2-4c (ligand) VIHVTKEVKEVATLSCGLNVSVEELAQTRIYWQKEKKMVLTMMSGDMNIWPEYKNRTIFDITNNLSIVILALRPSDEGTYECVVLEYEKDAFKREHLAEVMLSVKADFPTPSISDFEIPPSNIRRIICSTSGGFPEPHLSWLENGEELNGINTTVSQDPETELYTVSSKLDFNMTTNRSFVCLIKYGHLRVNQTFNWNTPKQEHFPDNLLPSWAITLISVNGIFVICCLTYCFAPRCRERRRNERLRRESVHPV : 1
Round 2 CTLA4BP 2x1-e2 (ligand) VIHVTKEVKEVATLSCGHNVSDEELAQTRIHWQKEKKMVLTMMSGDMNIWPEYKNRTIFDITNNLSIVILALRPSDEGTYECVVLKYEKDAFKREHLAEVTLSVKADFPTPSISDFEIPPSNIRRIICSTSGGFPEPHLSWLENGEELNAINTTVSQDPGTELYTVSSKLDFNMTTNHSFMCLIKYGHLRVNQTFNWNTPKQEHFPDNLLPSAITLISANGIFVICCLTYCFAPRCRERRRNERLRRESIHPV : 1

Let me know recorded Binding Score for Round 2 CTLA4 A-C9-9 (ligand) SGITPKSVTKRVKETVMLSCDYSTSTEELTSLRIYWQKDSKMVLAILPGKVQVWPEYKNRTFPDIINNLSLMILALRLSDRGTYTCVVQKNENGSFRREHLTSVTLSIRADFPVPSITDIGHPAPNVKRIRCSASGGFPEPRLAWMEDGEELNAVNTTVDQDLDTELYSVGSELDFNVTNNHSIVCLIKYGELSVSQIFPWSKPKQEPPIDQLPFWVIIPVSGALVLTAVVLYCLARRHVARWKRTRRNEETVGTERLSPIYLGSAQSSG , thanks.
0
